measurement target: L79W
experiment description: SPR; 25 C

[
  {
    "binder": "BMP9 (ligand) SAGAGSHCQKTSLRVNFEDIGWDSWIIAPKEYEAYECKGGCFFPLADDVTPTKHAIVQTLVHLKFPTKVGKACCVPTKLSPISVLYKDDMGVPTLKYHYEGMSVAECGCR",
    "Kd (nM)": 0.11
  },
  {
    "binder": "Activin A (ligand) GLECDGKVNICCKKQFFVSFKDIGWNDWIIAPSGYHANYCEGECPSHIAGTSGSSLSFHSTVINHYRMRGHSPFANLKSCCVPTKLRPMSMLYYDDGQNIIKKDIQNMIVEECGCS",
    "Kd (nM)": 0.26
  },
  {
    "binder": "BMP10 (ligand) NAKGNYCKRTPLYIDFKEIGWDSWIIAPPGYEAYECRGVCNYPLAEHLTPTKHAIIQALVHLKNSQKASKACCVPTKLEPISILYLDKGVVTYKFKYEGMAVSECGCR",
    "Kd (nM)": 0.16
  },
  {
    "binder": "GDF11 (ligand) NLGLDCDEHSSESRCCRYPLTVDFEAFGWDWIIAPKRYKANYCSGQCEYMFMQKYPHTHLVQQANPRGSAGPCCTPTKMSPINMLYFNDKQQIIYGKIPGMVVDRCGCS",
    "Kd (nM)": 0.044
  }
]
